Where these numbers come from: PubChem BioAssay AID2060621

System: 324938-238-R-J1-PDC complex spheroids viability
Test Description: Anticancer human tumor 324938-238-R-J1-PDC patient-derived bladder carcinoma cell line growth inhibition [CLK]; active = viability on the fitted dose curve at most 10% of control; inactive = the rest
Condition: second compound 10 µM; first compound 0.0949 µM
Tick one outcome: true (1) for active, false (0) for inactive

Completed entries (count: 5):
CC(C)CC(NC(=O)C(Cc1ccccc1)NC(=O)c1cnccn1)B(O)O (stereo unspecified) + CNC(=O)c1ccc(Nc2nc(OC3CCCC3)c3c(-c4ccc5nc(C)oc5c4)c[nH]c3n2)c(OC)c1 ... true (1)
NC(=O)C(=Cn1cnc(-c2cc(C(F)(F)F)cc(C(F)(F)F)c2)n1)c1cncnc1 + CNC(=O)c1ccc(Nc2nc(OC3CCCC3)c3c(-c4ccc5nc(C)oc5c4)c[nH]c3n2)c(OC)c1 ... true (1)
CC(C)CC(NC(=O)C(Cc1ccccc1)NC(=O)c1cnccn1)B(O)O (stereo unspecified) + CN1CCN(c2cc(C(=O)Nc3cc4cc(-c5cnn(C)c5)ccc4cn3)ccn2)CC1 ... true (1)
C=CC(=O)Nc1cc(Nc2nccc(-c3cn(C)c4ccccc34)n2)c(OC)cc1N(C)CCN(C)C + CN1CCN(c2cc(C(=O)Nc3cc4cc(-c5cnn(C)c5)ccc4cn3)ccn2)CC1 ... true (1)
NC(=O)C(=Cn1cnc(-c2cc(C(F)(F)F)cc(C(F)(F)F)c2)n1)c1cncnc1 + CN1CCN(c2cc(C(=O)Nc3cc4cc(-c5cnn(C)c5)ccc4cn3)ccn2)CC1 ... true (1)

Now examine the next entry.
Inquiry: Hey, what did the test say about C=CC(=O)Nc1cc(Nc2nccc(-c3cn(C)c4ccccc34)n2)c(OC)cc1N(C)CCN(C)C + CNC(=O)c1ccc(Nc2nc(OC3CCCC3)c3c(-c4ccc5nc(C)oc5c4)c[nH]c3n2)c(OC)c1 ?
Reply text: false (0)

* * *

Tested on: 324938-238-R-J1-PDC complex spheroids viability
Test Description: Anticancer human tumor 324938-238-R-J1-PDC cell line growth inhibition [CLK];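 also: viability read after seven days of drug exposure; 100% = DMSO vehicle control wells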
Condition: second compound 1 µM; first compound 0.1 µM; hits give low values
Excerpt: A high-throughput screen of multi-cell type tumor spheroids was designed to identify active combinations of […] and targeted small molecules. Complex spheroids include a stromal component modeled by human endothelial cells (HUVEC) and fibroblasts modeled by human mesenchymal stem cells (MSCs). […] Compounds. […] If the clinical Cmax for an agent had not been determined, the highest concentration tested was 10 microM. […]
Quantity Measured: viability, T/C (%)
Answers are plain numbers, in %.

Solved cases (2 shown):
C=C(F)C(=O)N1CCN(c2nc(OCC3CCCN3C)nc3c2CCN(c2cccc4cccc(Cl)c24)C3)CC1CC#N (stereo not given) + CNC(=O)c1ccc(Nc2nc(OC3CCCC3)c3c(-c4ccc5nc(C)oc5c4)c[nH]c3n2)c(OC)c1 ... 17
CC1COCCN1c1cc(C2(S(C)(=N)=O)CC2)nc(-c2ccnc3[nH]ccc23)n1 (stereo not given) + CN1CCN(c2cc(C(=O)Nc3cc4cc(-c5cnn(C)c5)ccc4cn3)ccn2)CC1 ... 1.37

Please go through the list and note viability, T/C for each compound.
1. CC(CO)NC(=O)c1cc(-c2ccc(Cl)cc2)nn(-c2cnn(C)c2)c1=O (stereo not given) + CNC(=O)c1ccc(Nc2nc(OC3CCCC3)c3c(-c4ccc5nc(C)oc5c4)c[nH]c3n2)c(OC)c1
2. COc1cccc2c1C(=O)c1c(O)c3c(c(O)c1C2=O)CC(O)(C(=O)CO)CC3OC1CC(N)C(O)C(C)O1 (stereo not given) + CN1CCN(c2cc(C(=O)Nc3cc4cc(-c5cnn(C)c5)ccc4cn3)ccn2)CC1

Reply text:
16
0.2

The value of viability, T/C measured for the compound O=C(c1cc(Cc2n[nH]c(=O)c3ccccc23)ccc1F)N1CCN(C(=O)C2CC2)CC1 + CNC(=O)c1ccc(Nc2nc(OC3CCCC3)c3c(-c4ccc5nc(C)oc5c4)c[nH]c3n2)c(OC)c1 turned out to be 15.2

* * *

Test system: 324938-238-R-J1-PDC complex spheroids viability
Test Description: Anticancer human tumor 324938-238-R-J1-PDC cell line growth inhibition [CLK];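 also: viability read after seven days of drug exposure; 100% = DMSO vehicle control wells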
Condition: second compound 3.16 µM; first compound 0.1 µM; hits give low values
Define the label as true (1) when viability, T/C is strictly less than 8% and as false (0) in all remaining cases.

C=CC(=O)N1CCN(c2nc(=O)n(-c3c(C)ccnc3C(C)C)c3nc(-c4c(O)cccc4F)c(F)cc23)C(C)C1 (stereo not given) + CNC(=O)c1ccc(Nc2nc(OC3CCCC3)c3c(-c4ccc5nc(C)oc5c4)c[nH]c3n2)c(OC)c1 ... false (0)
COc1c(OCCCN2CCOCC2)ccc2c3n(c(=NC(=O)c4cnc(N)nc4)nc12)CCN3 + CNC(=O)c1ccc(Nc2nc(OC3CCCC3)c3c(-c4ccc5nc(C)oc5c4)c[nH]c3n2)c(OC)c1 ... true (1)
Nc1ccn(C2OC(CO)C(O)C2(F)F)c(=O)n1 (stereo not given) + CNC(=O)c1ccc(Nc2nc(OC3CCCC3)c3c(-c4ccc5nc(C)oc5c4)c[nH]c3n2)c(OC)c1 ... false (0)

Read the next record carefully.
Inquiry: Report whether reported viability, T/C is lower than 8% (strictly) for Nc1ccccc1NC(=O)c1ccc(CNC(=O)OCc2cccnc2)cc1 + CNC(=O)c1ccc(Nc2nc(OC3CCCC3)c3c(-c4ccc5nc(C)oc5c4)c[nH]c3n2)c(OC)c1
Reply text: false (0)

* * *

System: 324938-238-R-J1-PDC complex spheroids viability
Test Description: Anticancer human tumor 324938-238-R-J1-PDC cell line growth inhibition [CLK]; active = viability on the fitted dose curve at most 10% of control; inactive = the rest;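 also: viability read after seven days of drug exposure; 100% = DMSO vehicle control wells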
Condition: second compound 1 µM; first compound 0.1 µM
Use one of these outcomes when replying: active, inactive

CC1COCCN1c1cc(C2(S(C)(=N)=O)CC2)nc(-c2ccnc3[nH]ccc23)n1 (stereo not drawn) + CNC(=O)c1ccc(Nc2nc(OC3CCCC3)c3c(-c4ccc5nc(C)oc5c4)c[nH]c3n2)c(OC)c1 ... inactive

Inquiry: Please let me know the test result on file for CC(Nc1ccc2c(c1)OCCn1cc(N3C(=O)OCC3C(F)F)nc1-2)C(N)=O (stereo not drawn) + CN1CCN(c2cc(C(=O)Nc3cc4cc(-c5cnn(C)c5)ccc4cn3)ccn2)CC1 .
Reply text: active

Inquiry: Which outcome did this test record for the compound Nc1ccn(C2OC(CO)C(O)C2(F)F)c(=O)n1 (stereo not drawn) + CN1CCN(c2cc(C(=O)Nc3cc4cc(-c5cnn(C)c5)ccc4cn3)ccn2)CC1 ?
Reply text: active

* * *

System: 324938-238-R-J1-PDC complex spheroids viability
Test Description: Anticancer human tumor 324938-238-R-J1-PDC cell line growth inhibition [CLK]; active = viability on the fitted dose curve at most 10% of control; inactive = the rest;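 also: viability read after seven days of drug exposure; 100% = DMSO vehicle control wells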
Condition: second compound 0.1 µM; first compound 1 µM
Excerpt: A high-throughput screen of multi-cell type tumor spheroids was designed to identify active combinations of […] and targeted small molecules. Complex spheroids include a stromal component modeled by human endothelial cells (HUVEC) and fibroblasts modeled by human mesenchymal stem cells (MSCs). […] Compounds. […] If the clinical Cmax for an agent had not been determined, the highest concentration tested was 10 microM. […]
Use one of these outcomes when replying: true = active, false = inactive

Examples from the recorded data:
COC1C=CCC(C)C(C)S(=O)(=O)NC(=O)c2ccc3c(c2)N(CC2CCC21)CC1(CCCc2cc(Cl)ccc21)CO3 (stereo not given) + CNC(=O)c1ccc(Nc2nc(OC3CCCC3)c3c(-c4ccc5nc(C)oc5c4)c[nH]c3n2)c(OC)c1 ... false
COc1ccc([C@@H](O)c2cc(-c3ncnc4cc(N5CCOCC5)ccc34)c(F)cc2Cl)nn1 + CN1CCN(c2cc(C(=O)Nc3cc4cc(-c5cnn(C)c5)ccc4cn3)ccn2)CC1 ... false
CCN1CCN(Cc2ccc(Nc3ncc(F)c(-c4cc(F)c5nc(C)n(C(C)C)c5c4)n3)nc2)CC1 + CN1CCN(c2cc(C(=O)Nc3cc4cc(-c5cnn(C)c5)ccc4cn3)ccn2)CC1 ... false

Inquiry: Answer briefly: the call reported for C=CC(=O)N1CCN(c2nc(=O)n(-c3c(C)ccnc3C(C)C)c3nc(-c4c(O)cccc4F)c(F)cc23)C(C)C1 (stereo not given) + CN1CCN(c2cc(C(=O)Nc3cc4cc(-c5cnn(C)c5)ccc4cn3)ccn2)CC1 in this assay.
Reply text: false

Inquiry: # fetch the recorded call for CC1(C)CCC(CN2CCN(c3ccc(C(=O)NS(=O)(=O)c4ccc(NCC5CCOCC5)c([N+](=O)[O-])c4)c(Oc4cnc5[nH]ccc5c4)c3)CC2)=C(c2ccc(Cl)cc2)C1 + CNC(=O)c1ccc(Nc2nc(OC3CCCC3)c3c(-c4ccc5nc(C)oc5c4)c[nH]c3n2)c(OC)c1 here
Reply text: false

Inquiry: Please indicate how the test categorized Nc1ccn(C2OC(CO)C(O)C2(F)F)c(=O)n1 (stereo not given) + CN1CCN(c2cc(C(=O)Nc3cc4cc(-c5cnn(C)c5)ccc4cn3)ccn2)CC1 .
Reply text: true

Inquiry: Assay result, entry C=CC(=O)N1CCN(c2nc(=O)n(-c3c(C)ccnc3C(C)C)c3nc(-c4c(O)cccc4F)c(F)cc23)C(C)C1 (stereo not given) + CNC(=O)c1ccc(Nc2nc(OC3CCCC3)c3c(-c4ccc5nc(C)oc5c4)c[nH]c3n2)c(OC)c1 — outcome?
Reply text: false

Inquiry: Call for entry COc1c(OCCCN2CCOCC2)ccc2c3n(c(=NC(=O)c4cnc(N)nc4)nc12)CCN3 + CN1CCN(c2cc(C(=O)Nc3cc4cc(-c5cnn(C)c5)ccc4cn3)ccn2)CC1 :
Reply text: true

Inquiry: How did this test come out for CC(CO)NC(=O)c1cc(-c2ccc(Cl)cc2)nn(-c2cnn(C)c2)c1=O (stereo not given) + CN1CCN(c2cc(C(=O)Nc3cc4cc(-c5cnn(C)c5)ccc4cn3)ccn2)CC1 ?
Reply text: false

Inquiry: For O=C(c1cc(Cc2n[nH]c(=O)c3ccccc23)ccc1F)N1CCN(C(=O)C2CC2)CC1 + CN1CCN(c2cc(C(=O)Nc3cc4cc(-c5cnn(C)c5)ccc4cn3)ccn2)CC1 , which call appears in the assay record?
Reply text: false
